Listing of entries alongside the reported relative viability.
- Test system: NCI-H2085
- assay: relative viability (nuclei count vs DMSO), 5 days (fraction); higher = more cells survive
- conditions used: first compound 5 µM

Worked cases, answers included:
# compound, relative viability
data = [
    ("O=C(O)CCCCC(CCSCc1ccccc1)SCc1ccccc1 (stereo not given) [CPI-613] + CC1(C)CCC(c2ccc(Cl)cc2)=C(CN2CCN(c3ccc(C(=O)NS(=O)(=O)c4ccc(N[C@H](CCN5CCOCC5)CSc5ccccc5)c(S(=O)(=O)C(F)(F)F)c4)cc3)CC2)C1 [Navitoclax] (partner 0.5 µM)", 0.988),
    ("O=C(O)CCCCC(CCSCc1ccccc1)SCc1ccccc1 (stereo not given) [CPI-613] + CC(C)C[C@H](NC(=O)[C@H](Cc1ccccc1)NC(=O)c1cnccn1)B(O)O [Bortezomib] (partner 0.002 µM)", 0.984),
    ("O=C(O)CCCCC(CCSCc1ccccc1)SCc1ccccc1 (stereo not given) [CPI-613] + COc1cccc2cc(-c3nc([C@H]4CC[C@H](C(=O)O)CC4)n4ncnc(N)c34)[nH]c12 [OSI-027] (partner 0.5 µM)", 0.727),
    ("O=C(O)CCCCC(CCSCc1ccccc1)SCc1ccccc1 (stereo not given) [CPI-613] + CS(=O)(=O)CCNCc1ccc(-c2ccc3ncnc(Nc4ccc(OCc5cccc(F)c5)c(Cl)c4)c3c2)o1 [Lapatinib] (partner 2 µM)", 0.813),
]

Now take the following compound into account.
# query: relative viability of entry O=C(O)CCCCC(CCSCc1ccccc1)SCc1ccccc1 (stereo not given) [CPI-613] + CS(=O)(=O)N1CCN(Cc2cc3nc(-c4cccc5[nH]ncc45)nc(N4CCOCC4)c3s2)CC1 [Pictilisib] (partner 1 µM)
0.505

----------
- Tested on: NCI-H1944
- assay: relative viability (nuclei count vs DMSO), 5 days (fraction); higher = more cells survive
- conditions used: first compound 0.08 µM
The label Fulfilled is reserved for relative viability strictly under 0.6; Not fulfilled covers values equal to or above it.

The examples below pair each entry with its known result.
# molecule, assigned class
records = [
    ("Cc1cnc(-c2cnc(NCCNc3ccc(C#N)cn3)nc2-c2ccc(Cl)cc2Cl)[nH]1 + CS(=O)(=O)N1CCN(Cc2cc3nc(-c4cccc5[nH]ncc45)nc(N4CCOCC4)c3s2)CC1 [Pictilisib] (partner 1 µM)", "Fulfilled"),
    ("Cc1cnc(-c2cnc(NCCNc3ccc(C#N)cn3)nc2-c2ccc(Cl)cc2Cl)[nH]1 + CC1(C)CCC(c2ccc(Cl)cc2)=C(CN2CCN(c3ccc(C(=O)NS(=O)(=O)c4ccc(N[C@H](CCN5CCOCC5)CSc5ccccc5)c(S(=O)(=O)C(F)(F)F)c4)cc3)CC2)C1 [Navitoclax] (partner 0.5 µM)", "Not fulfilled"),
    ("O=c1[nH]c2ccccc2n1C1CCN(CCCC(c2ccc(F)cc2)c2ccc(F)cc2)CC1 [Pimozide] + Cc1cc(Nc2cc(N3CCN(C)CC3)nc(Sc3ccc(NC(=O)C4CC4)cc3)n2)n[nH]1 [Tozasertib] (partner 0.1 µM)", "Fulfilled"),
]

Problem: For the molecule Cc1cnc(-c2cnc(NCCNc3ccc(C#N)cn3)nc2-c2ccc(Cl)cc2Cl)[nH]1 + CS(=O)(=O)CCNCc1ccc(-c2ccc3ncnc(Nc4ccc(OCc5cccc(F)c5)c(Cl)c4)c3c2)o1 [Lapatinib] (partner 2 µM) , is relative viability under 0.6?
Not fulfilled

Lookup Cc1cnc(-c2cnc(NCCNc3ccc(C#N)cn3)nc2-c2ccc(Cl)cc2Cl)[nH]1 + Cc1cc(Nc2cc(N3CCN(C)CC3)nc(Sc3ccc(NC(=O)C4CC4)cc3)n2)n[nH]1 [Tozasertib] (partner 0.1 µM)
Fulfilled

Lookup O=c1[nH]c2ccccc2n1C1CCN(CCCC(c2ccc(F)cc2)c2ccc(F)cc2)CC1 [Pimozide] + O=C(CCCCCCC(=O)Nc1ccccc1)NO [Vorinostat] (partner 1 µM)
Fulfilled
